Biological target: T1, mouse-derived WARS1 recombinant protein (mouse, UniProt P32921 1-481, limits assumed)
T1 construct: Recombinant, His-tagged (detected with anti-His tag antibody); construct not described; In the western blot also secreted WARS1 from J774A.1 supernatant and mouse serum; also called mouse WARS1
T1 sequence (looked up): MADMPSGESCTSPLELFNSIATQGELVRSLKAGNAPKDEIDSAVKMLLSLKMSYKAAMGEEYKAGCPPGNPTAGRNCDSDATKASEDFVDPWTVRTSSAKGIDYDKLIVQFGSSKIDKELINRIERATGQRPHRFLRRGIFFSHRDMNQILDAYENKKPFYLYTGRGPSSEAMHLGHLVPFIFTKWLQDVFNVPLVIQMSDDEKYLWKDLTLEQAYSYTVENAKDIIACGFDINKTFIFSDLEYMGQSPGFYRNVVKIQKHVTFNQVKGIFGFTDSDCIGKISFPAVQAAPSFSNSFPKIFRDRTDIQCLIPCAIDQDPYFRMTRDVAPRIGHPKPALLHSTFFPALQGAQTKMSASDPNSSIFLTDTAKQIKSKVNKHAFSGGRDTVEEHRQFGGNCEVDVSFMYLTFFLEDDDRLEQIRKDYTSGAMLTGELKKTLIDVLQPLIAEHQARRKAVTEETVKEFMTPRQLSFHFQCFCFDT
Test: direct ELISA
property_measured: Kd

Worked cases, answers included:
SHL/LLN (antibody, V domains shown, L-CDR2 and L-CDR3 variant of GKB101; also called SHL/LLN antibody) VH: EVQLLESGGGLVQPGGSLRLSCAASGFTFSSYDMSWVRQAPGKGLEWVSAISSGGSSIYYADSVKGRFTISRDNSKNTLYLQMNSLRAEDTAVYYCARDVAWDMLGDFDYWGQGTLVTVSS VL: QSVLTQPPSASGTPGQRVTISCTGSSSNIGSNYVYWYQQLPGTAPKLLIYANLLRPSGVPDRFSGSKSGTSASLAISGLRSEDEADYYCGAWDDSNSAYVFGGGTKLTVLT = ~1 pM
SHL/QLN (antibody, V domains shown, L-CDR2 and L-CDR3 variant of GKB101; also called SHL/QLN antibody) VH: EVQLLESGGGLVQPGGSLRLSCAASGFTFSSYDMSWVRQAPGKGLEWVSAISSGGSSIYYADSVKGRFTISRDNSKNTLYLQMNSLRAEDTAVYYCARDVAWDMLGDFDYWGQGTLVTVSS VL: QSVLTQPPSASGTPGQRVTISCTGSSSNIGSNYVYWYQQLPGTAPKLLIYANQLRPSGVPDRFSGSKSGTSASLAISGLRSEDEADYYCGAWDDSNSAYVFGGGTKLTVLT = ~1 pM

Turning now to a further binder:
Please report the recorded Kd for S53Q (antibody, V domains shown, L-CDR2 variant of GKB101; also called S53Q antibody) VH: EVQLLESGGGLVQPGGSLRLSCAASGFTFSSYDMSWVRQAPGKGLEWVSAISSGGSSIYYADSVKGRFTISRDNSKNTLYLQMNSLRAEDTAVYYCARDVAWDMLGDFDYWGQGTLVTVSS VL: QSVLTQPPSASGTPGQRVTISCTGSSSNIGSNYVYWYQQLPGTAPKLLIYANQHRPSGVPDRFSGSKSGTSASLAISGLRSEDEADYYCGAWDDSLSAYVFGGGTKLTVLT . ~1 pM

Value source: patent US20250289905A1
